measurementTarget: Serine/threonine-protein kinase 26 (Homo sapiens) (UniProt Q9P289)
Sequence (Q9P289 2-416 limits assumed): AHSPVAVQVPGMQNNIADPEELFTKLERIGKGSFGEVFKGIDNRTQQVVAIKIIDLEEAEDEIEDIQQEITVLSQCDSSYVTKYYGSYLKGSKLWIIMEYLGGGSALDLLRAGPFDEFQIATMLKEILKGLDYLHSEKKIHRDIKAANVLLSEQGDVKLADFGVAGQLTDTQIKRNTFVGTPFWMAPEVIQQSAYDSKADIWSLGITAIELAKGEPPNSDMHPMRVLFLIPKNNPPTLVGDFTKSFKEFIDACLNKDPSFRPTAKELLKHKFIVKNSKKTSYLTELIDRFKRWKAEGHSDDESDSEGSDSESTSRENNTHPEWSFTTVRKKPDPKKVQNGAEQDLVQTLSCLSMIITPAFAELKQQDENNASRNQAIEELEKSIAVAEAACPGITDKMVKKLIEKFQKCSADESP
Decide using ΔTm alone. Strictly below 1 °C: Yes. Equal to or above 1 °C: No.

{"compound": "O=Nc1c(-c2c(O)[nH]c3ccccc23)[nH]c2ccccc12", "label": "No"}
{"compound": "CCN1/C(=C/C(C)=O)Sc2ccc(OC)cc21", "label": "Yes"}
{"compound": "NS(=O)(=O)c1ccc(Nc2nc(OCC3CCCCC3)c3nc[nH]c3n2)cc1", "label": "No"}
{"compound": "C[S+]([O-])c1ccc(-c2nc(-c3ccc(F)cc3)c(-c3ccncc3)[nH]2)cc1 (stereo not given)", "label": "Yes"}
{"compound": "NC1=N/C(=C2/CCNC(=O)c3[nH]ccc32)C(=O)N1", "label": "No"}
{"compound": "Brc1c(Br)c(Br)c2[nH]nnc2c1Br", "label": "No"}
{"compound": "O=C1Cc2c([nH]c3ccc([N+](=O)[O-])cc23)-c2ccccc2N1", "label": "No"}
{"compound": "Clc1ccc(Nc2nnc(Cc3ccncc3)c3ccccc23)cc1", "label": "Yes"}
{"compound": "O=C1Nc2ccccc2/C1=C1/Nc2ccccc2/C1=N\\O", "label": "No"}

Now look at this entry.
*Q* Is ΔTm of CN(C)CC1CCn2c(c(C3=C(c4c[nH]c5ccccc45)C(=O)NC3=O)c3ccccc32)C1 (stereo not given) strictly below 1 °C?
*A* Yes
